Target: CYP2D6 (Homo sapiens, UniProt P10635)
Sequence (P10635 whole entry): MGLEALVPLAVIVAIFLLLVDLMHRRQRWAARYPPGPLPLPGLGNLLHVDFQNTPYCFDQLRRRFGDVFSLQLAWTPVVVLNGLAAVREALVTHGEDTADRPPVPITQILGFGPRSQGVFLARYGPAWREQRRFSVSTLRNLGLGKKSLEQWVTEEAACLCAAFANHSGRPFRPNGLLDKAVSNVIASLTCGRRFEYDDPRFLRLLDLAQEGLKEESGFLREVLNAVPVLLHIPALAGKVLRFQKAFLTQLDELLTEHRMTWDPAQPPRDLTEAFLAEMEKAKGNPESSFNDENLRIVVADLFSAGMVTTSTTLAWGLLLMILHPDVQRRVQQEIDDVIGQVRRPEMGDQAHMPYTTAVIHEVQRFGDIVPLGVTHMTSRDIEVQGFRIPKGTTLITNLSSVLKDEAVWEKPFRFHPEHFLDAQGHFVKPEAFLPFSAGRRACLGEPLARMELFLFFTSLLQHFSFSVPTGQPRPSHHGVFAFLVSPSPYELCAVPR
Assay: Inhibition of CYP2D6 in human liver microsomes at 10 uM using bufuralol as substrate preincubated for 5 min followed by NADPH addition measured after 10 mins by LC-MS/MS method relative to control
Format: ADME
Conditions: probe bufuralol
ATTRIBUTE MEASURED: inhibition at 10 min, 10 µM (%)
Your answer is read as %, so omit the unit and give the number.

Some compounds with known inhibition at 10 min, 10 µM results, for comparison:
* COc1c(OCC(=O)NC(CCCNC(=N)N)C(N)=O)cc2oc3cc(OCC(=O)NC(CCCNC(=N)N)C(N)=O)c(CC=C(C)C)c(O)c3c(=O)c2c1CC=C(C)C (stereo not drawn) | 2
* COC(=O)C(CCCNC(=N)N)NC(=O)COc1cc2oc3cc(OCC(=O)NC(CCCNC(=N)N)C(=O)OC)c(OC)c(CC=C(C)C)c3c(=O)c2c(O)c1CC=C(C)C (stereo not drawn) | 11

Tell me the measured inhibition at 10 min, 10 µM of `CCCN(CCC)CCCCOc1cc2oc3cc(OCCCCN(CCC)CCC)c(OC)c(CC=C(C)C)c3c(=O)c2c(O)c1CC=C(C)C` , please.
0
